// log10 IC50 lookup, one value per entry
Test system: Plasmodium falciparum
Assay: Antimalarial activity against multidrug-resistant Plasmodium falciparum K1 after 24 hrs by [3H]hypoxanthine incorporation assay
Type: functional, organism-based
Details: Plasmodium falciparum, K1; read-out: IC50
endpoint: log10 IC50 (log10 of the value in µM)

molecule: COc1cccc(/C=C/C(=O)c2cccc(-n3cc(COc4ccc5ccc(=O)oc5c4)nn3)c2)c1OC
subject-of-test: Plasmodium falciparum
log10 IC50: 0.82
//
molecule: COc1ccc(/C=C/C(=O)c2cccc(-n3cc(COc4ccc5ccc(=O)oc5c4)nn3)c2)c(OC)c1OC
subject-of-test: Plasmodium falciparum
log10 IC50: 1.11
//
molecule: COc1cccc(/C=C/C(=O)c2cccc(-n3cc(COc4cc(=O)oc5ccccc45)nn3)c2)c1OC
subject-of-test: Plasmodium falciparum
log10 IC50: 0.67
//
molecule: COc1ccc(/C=C/C(=O)c2ccc(-n3cc(COc4cc(=O)oc5ccccc45)nn3)cc2)c(OC)c1OC
subject-of-test: Plasmodium falciparum
log10 IC50: 0.20
//
molecule: COc1ccc(/C=C/C(=O)c2cccc(-n3cc(COc4cc(=O)oc5ccccc45)nn3)c2)c(OC)c1OC
subject-of-test: Plasmodium falciparum
log10 IC50: 0.87
//
molecule: C[C@H]1[C@@H](O)O[C@@H]2O[C@@]3(C)CC[C@H]4[C@H](C)CC[C@@H]1[C@@]24OO3 [ARTENIMOL]
subject-of-test: Plasmodium falciparum
log10 IC50: -2.96

* * *

System: HepG2
Test: Cytotoxicity against human HepG2 cells assessed as reduction in cell viability after 48 hrs by MTT assay
Type: functional, cell-based
Settings: HepG2, 48 h

structure-smiles: COc1cccc(/C=C/C(=O)c2cccc(-n3cc(COc4cc(=O)oc5ccccc45)nn3)c2)c1OC
IC50, µM: 4.26

structure-smiles: COc1ccc(/C=C/C(=O)c2ccc(-n3cc(COc4cc(=O)oc5ccccc45)nn3)cc2)c(OC)c1OC
IC50, µM: 22.9

structure-smiles: COc1cccc(/C=C/C(=O)c2cccc(-n3cc(COc4ccc5ccc(=O)oc5c4)nn3)c2)c1OC
IC50, µM: 15.7

structure-smiles: COc1cccc(/C=C/C(=O)c2ccc(-n3cc(COc4ccc5ccc(=O)oc5c4)nn3)cc2)c1OC
IC50, µM: 8.18

* * *

System: Plasmodium falciparum
Assay: Antimalarial activity against multidrug-resistant Plasmodium falciparum K1 after 24 hrs by [3H]hypoxanthine incorporation assay
Format: functional, organism-based

structure-smiles: COc1cccc(/C=C/C(=O)c2ccc(-n3cc(COc4ccc5ccc(=O)oc5c4)nn3)cc2)c1OC
subject-of-test: Plasmodium falciparum
IC50: Not Active
//
structure-smiles: COc1cc(/C=C/C(=O)c2ccc(-n3cc(COc4cc(=O)oc5ccccc45)nn3)cc2)cc(OC)c1OC
subject-of-test: Plasmodium falciparum
IC50: Not Active
//
structure-smiles: COc1cc(/C=C/C(=O)c2ccc(-n3cc(COc4ccc5ccc(=O)oc5c4)nn3)cc2)cc(OC)c1OC
subject-of-test: Plasmodium falciparum
IC50: Not Active
//
structure-smiles: COc1ccc(/C=C/C(=O)c2cccc(-n3cc(COc4ccc5ccc(=O)oc5c4)nn3)c2)cc1OC
subject-of-test: Plasmodium falciparum
IC50: Not Active
//
structure-smiles: COc1ccc(/C=C/C(=O)c2ccc(-n3cc(COc4ccc5ccc(=O)oc5c4)nn3)cc2)c(OC)c1OC
subject-of-test: Plasmodium falciparum
IC50: Not Active
//
structure-smiles: COc1ccc(/C=C/C(=O)c2cccc(-n3cc(COc4cc(=O)oc5ccccc45)nn3)c2)cc1OC
subject-of-test: Plasmodium falciparum
IC50: Not Active
